Consider the following binders; for each one, report its EC50.
# ASSAY TARGET: T1, human activated protein C (human, UniProt P04070 43-197; P04070 212-461)
# T1 construct: also called human aPC; human APC
# MEASUREMENT PROTOCOL: ELISA, coated antigen
All answers are understood in nM, so give the number only.

Need EC50, item Hu1573-11 (antibody, V domains shown, Humanized IgG, human gamma 1 / kappa constant regions by vectors pCP-hCg1 and pCP-hck; also called H1573VH.1D + H1573Vk.2B) VH: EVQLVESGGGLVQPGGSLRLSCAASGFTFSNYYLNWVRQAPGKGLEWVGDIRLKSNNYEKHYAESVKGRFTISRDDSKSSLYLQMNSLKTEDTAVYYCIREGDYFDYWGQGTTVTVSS VL: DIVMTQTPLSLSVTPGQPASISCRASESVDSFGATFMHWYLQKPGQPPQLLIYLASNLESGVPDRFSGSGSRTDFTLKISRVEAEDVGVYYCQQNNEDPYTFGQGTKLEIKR 0.687

Need EC50, item Hu1573-4 (antibody, V domains shown, Humanized IgG, human gamma 1 / kappa constant regions by vectors pCP-hCg1 and pCP-hck; also called H1573VH.1B + H1573Vk.2A) VH: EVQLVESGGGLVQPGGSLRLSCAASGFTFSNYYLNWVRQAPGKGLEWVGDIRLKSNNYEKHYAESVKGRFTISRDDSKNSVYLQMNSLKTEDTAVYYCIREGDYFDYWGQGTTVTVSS VL: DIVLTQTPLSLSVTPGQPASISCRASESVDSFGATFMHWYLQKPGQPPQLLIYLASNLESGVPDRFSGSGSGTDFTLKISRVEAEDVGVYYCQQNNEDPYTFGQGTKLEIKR 0.583

Need EC50, item Hu1573-1 (antibody, V domains shown, Humanized IgG, human gamma 1 / kappa constant regions by vectors pCP-hCg1 and pCP-hck; also called H1573VH.1 + H1573Vk.2C) VH: EVQLVESGGGLVQPGGSLRLSCAASGFTFSNYYLNWVRQAPGKGLEWVGDIRLKSNNYEKHYAESVKGRFTISRDDSKNSLYLQMNSLKTEDTAVYYCAREGDYFDYWGQGTTVTVSS VL: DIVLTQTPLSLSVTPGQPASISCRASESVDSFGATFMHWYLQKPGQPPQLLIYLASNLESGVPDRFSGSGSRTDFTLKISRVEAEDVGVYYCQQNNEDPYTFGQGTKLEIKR 0.369
